- System: Vero E6 infected with SARS-CoV-2
- Protocol: inhibition of SARS-CoV-2 cytopathic effect; higher = more antiviral protection, active = above 15
- Run Conditions: 100 nM; 48 h
Experimental Readout: inhibition of SARS-CoV-2 cytopathic effect (%)
One number for each entry, in %.

Kindly give each listed record's inhibition of SARS-CoV-2 cytopathic effect.
1. CC(C)(S)C(=O)N[C@@H](CS)C(=O)O
2. CCN1C(=O)NC(c2ccccc2)C1=O (stereo not given)

**A:**
[5.04, 2.41]

Quick one: give me inhibition of SARS-CoV-2 cytopathic effect for each item below, same order please.
1. CCOc1c(N2CCOCC2)cnn(C)c1=O
2. CN(C)CCn1nnnc1SCC1=C(C(=O)O)N2C(=O)[C@@H](NC(=O)Cc3csc(N)n3)[C@H]2SC1
3. FC(F)(F)c1ccc(/C=C/c2nc(COc3ccc(CCCCn4ccnn4)cc3)co2)cc1

**A:**
1: -2.95; 2: -0.67; 3: 2.58

---

- Tested on: Vero E6 infected with SARS-CoV-2
- Protocol: inhibition of SARS-CoV-2 cytopathic effect; higher = more antiviral protection, active = above 15
- Run Conditions: 833.33 nM; 48 h
So I've got a bunch of compounds here, and I need their inhibition of SARS-CoV-2 cytopathic effect values.
One number for each entry, in %.

Worked cases, answers included:
CN(C(=O)c1c(O)c2ccccc2n(C)c1=O)c1ccccc1 [roquinimex] : -0.21
CCOc1nc2cccc(C(=O)O)c2n1Cc1ccc(-c2ccccc2-c2noc(=O)[nH]2)cc1 [azilsartan] : 2.65
N#CC[C@@H](C1CCCC1)n1cc(-c2ncnc3[nH]ccc23)cn1 [ruxolitinib-(S)] : 0.43
OCC(O)CN1CCN(c2ccccc2)CC1 (stereo not drawn) [dropropizine] : -2.45
NC(=O)N1c2ccccc2CC(O)c2ccccc21 (stereo not drawn) [licarbazepine] : -6.25

For every item below, please supply its inhibition of SARS-CoV-2 cytopathic effect.
1. Cc1cccc(C)c1NC1=NCCCS1 [xylazine]
2. CC(=O)N(CC(O)CO)c1c(I)c(C(=O)NCCO)c(I)c(C(=O)NCC(O)CO)c1I (stereo not drawn) [ioxilan]
3. CCc1cc2cc(OC)c(OC)cc2c(Cc2ccccc2)n1 [moxaverine]
4. Cc1ccccc1NC(=O)Nc1ccc(CC(=O)N(C)[C@@H](CC(C)C)C(=O)NCC[C@H](NC(=O)[C@@H]2CCCN2S(=O)(=O)c2cc(Cl)cc(Cl)c2)C(=O)O)cc1
5. O=C1CS[C@@H](c2ccccc2Cl)c2cc(Cl)ccc2N1 (racemic)
6. CN1[C@@H]2CC[C@H]1C[C@@H](OC(=O)c1cc(Cl)cc(Cl)c1)C2 [bemesetron]
7. NS(=O)(=O)c1ccc(NC(=O)Nc2ccc(F)cc2)cc1

**A:**
1. -1.24
2. -1.98
3. 0.83
4. 0.17
5. 5.44
6. 0.1
7. -1.65

Quick batch: inhibition of SARS-CoV-2 cytopathic effect for everything below.
1. CC(C)(C)NS(=O)(=O)c1cncc(-c2cc(F)c3nc(N)nn3c2)c1
2. CCN(CC)CCNC(=O)COc1ccc(OC)cc1 [mefexamide]
3. CC(=O)c1c(C)c2cnc(Nc3ccc(N4CCNCC4)cn3)nc2n(C2CCCC2)c1=O [palbociclib]
4. Cc1ccc(C(C)C)c(O)c1 [thymol]
5. COc1cc2c(cc1OC)-c1cc3ccc(OC)c(OC)c3c[n+]1CC2 [palmatine-chloride]
6. Cc1cc(CCCOc2c(C)cc(-c3noc(C(F)(F)F)n3)cc2C)on1 [pleconaril]

**A:**
[0.27, -0.89, -0.35, -1.48, -2.8, 0.02]

Origin of the recorded values: the supplement of paper PMC13380429
